- System: OVCAR-3
- measurementProtocol: NCI tumour cell line growth inhibition, 48 h
Calls of active or inactive are those of the source. Cut-off read from the data, not from the text of the source: active = GI50 up to about 1.1 µM and inactive = higher.
Result category, one only: active, inactive

molecule	tgt	groupLabel
C=C(C)C(=O)OC1CC2=CC(CC3(C)OC3C3OC(=O)C(=C)C13)OC2=O (stereo unspecified)	OVCAR-3	inactive
CC(=O)OC1COC(N2C(=O)/C(=N\Nc3ccc([N+](=O)[O-])cc3)c3cc(Br)c([N+](=O)[O-])cc32)C(OC(C)=O)C1OC(C)=O (stereo unspecified)	OVCAR-3	inactive
Cc1cn(CCCCC2=NCCCN2)c(=O)[nH]c1=O	OVCAR-3	inactive
COc1cccc(/C=C2\CCC(CCN(C)C)(C3=CCCC3)C2=O)c1 (stereo unspecified)	OVCAR-3	inactive
Cc1ccc(-c2cc(=O)c(=O)[nH][nH]2)cc1	OVCAR-3	inactive

Kindly provide the recorded test outcome for the following molecule: CN(C)CC1CN=C(N)O1 (stereo unspecified)
inactive

What classification did "c1ccc(C2=C(c3ccccc3)Sc3nnc(CCCCCCCCc4nnc5n4NC(c4ccccc4)=C(c4ccccc4)S5)n3N2)cc1" end up with in this test?
inactive

Per the assay record, what outcome was assigned to "COc1cc(OC)c(OC)cc1/C=N/NC(=O)N/N=C/c1cc(OC)c(OC)cc1OC" ?
inactive

For O=C(CC1(O)C(=O)Nc2c(Cl)cc(Cl)cc21)c1ccc(Br)cc1Br (stereo unspecified) , which call appears in the assay record?
inactive

How was O=c1c(-c2ccc(O)cc2)coc2cc(OC3OC(CO)C(O)C(O)C3O)cc(O)c12 (stereo unspecified) classified in this test?
inactive

These entries and their values trace back to ChEMBL document CHEMBL1201862.
